Values compiled from patent US11891365B2.

- System Tested: Full length human recombinant HDAC6 protein (Homo sapiens, UniProt Q9UBN7)
- Sequence (Q9UBN7 1-1215): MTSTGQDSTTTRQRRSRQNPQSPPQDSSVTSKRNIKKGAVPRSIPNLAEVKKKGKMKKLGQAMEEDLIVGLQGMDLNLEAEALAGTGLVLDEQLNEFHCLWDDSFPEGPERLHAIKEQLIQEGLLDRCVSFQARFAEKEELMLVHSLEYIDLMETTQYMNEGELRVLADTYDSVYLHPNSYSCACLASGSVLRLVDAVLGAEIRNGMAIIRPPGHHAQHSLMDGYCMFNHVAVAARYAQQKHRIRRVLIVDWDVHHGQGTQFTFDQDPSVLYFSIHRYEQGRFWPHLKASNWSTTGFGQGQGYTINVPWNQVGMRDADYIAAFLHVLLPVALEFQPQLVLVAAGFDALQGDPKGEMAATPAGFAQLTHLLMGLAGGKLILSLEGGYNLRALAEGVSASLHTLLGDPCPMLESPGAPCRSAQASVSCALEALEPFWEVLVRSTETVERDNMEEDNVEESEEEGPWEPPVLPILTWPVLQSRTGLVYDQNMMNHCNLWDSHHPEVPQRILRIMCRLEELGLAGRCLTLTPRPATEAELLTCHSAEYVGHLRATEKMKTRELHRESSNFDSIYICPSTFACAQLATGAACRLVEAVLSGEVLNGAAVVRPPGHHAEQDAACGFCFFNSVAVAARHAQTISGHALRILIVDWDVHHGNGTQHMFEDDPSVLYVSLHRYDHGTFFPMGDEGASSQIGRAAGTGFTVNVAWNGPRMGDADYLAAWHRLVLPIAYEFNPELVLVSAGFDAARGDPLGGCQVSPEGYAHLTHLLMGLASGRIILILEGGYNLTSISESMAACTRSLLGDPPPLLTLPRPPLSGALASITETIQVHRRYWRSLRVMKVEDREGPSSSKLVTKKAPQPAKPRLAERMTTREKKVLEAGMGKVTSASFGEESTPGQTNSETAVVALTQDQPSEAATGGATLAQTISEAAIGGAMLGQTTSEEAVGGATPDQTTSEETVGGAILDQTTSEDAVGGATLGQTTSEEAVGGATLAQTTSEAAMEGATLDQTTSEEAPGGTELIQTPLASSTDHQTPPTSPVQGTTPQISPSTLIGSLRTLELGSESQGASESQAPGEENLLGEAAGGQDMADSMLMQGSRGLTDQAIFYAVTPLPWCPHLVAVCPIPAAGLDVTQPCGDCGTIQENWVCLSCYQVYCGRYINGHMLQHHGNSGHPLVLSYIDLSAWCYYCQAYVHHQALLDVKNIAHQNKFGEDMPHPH
- Experiment: In vitro histone deacetylase assay: enzymatic HDAC6 electrophoretic mobility shift assay
- Test Context: 1 nM enzyme, 2 μM peptide substrate RHKK(Ac)-NH2, 25° C., 12 concentrations; read-out: Inhibitory Concentration (IC50) Values against HDAC6, Activity Range
Let's look at some compounds and their measured IC50.

Answered examples (5):
Quick one: IC50 of CC(C)(C(=O)N1CCOc2cc(C(=O)NO)ccc2C1)n1cc(Cl)cn1 ? ≤ 100 nM

Quick one: IC50 of CC(C(=O)N1CCOc2cc(C(=O)NO)ccc2C1)c1ccc(F)cc1 (stereo not drawn) ? 100 to 500 nM

Quick one: IC50 of COCCC(=O)N1Cc2ccc(C(=O)NO)cc2OC[C@@H]1C ? ≤ 100 nM

Quick one: IC50 of O=C1CN(C(=O)C2CCCCC2)Cc2cc(C(=O)NO)ccc2N1 ? > 500 nM

Quick one: IC50 of CC(C)[C@@H]1CN(C(=O)C2(C)CCC2)Cc2ccc(C(=O)NO)cc2O1 ? 100 to 500 nM

Could you now consider this next compound?
Quick one: IC50 of CC(=O)N1CCOc2cc(C(=O)NO)ccc2C1 ? ≤ 100 nM
